Just for reference, patent US6518243B1 is where these values come from.

- System: E. Faecalis CL 4877
- assay.summary: MIC determination in BHI media, OD600
- Type: cell-based
- experimental.context: BHI + 0.1% casamino acids, 18 hours at 37° C., ≧90% OD600 inhibition
Below: a set of entries, each annotated with reported MIC E. faecalis CL 4877.
The figure you give is taken to be in µg/mL; do not add the unit.

molecule=C[C@H](N)C(=O)N[C@H]1C(=O)N[C@@H](CC(N)=O)C(=O)N[C@H]2C(=O)N[C@H]3C(=O)N[C@H](C(=O)N[C@@H](C(=O)O)c4cc(O)cc(O)c4-c4cc3ccc4O)[C@H](O)c3ccc(c(Cl)c3)Oc3cc2cc(c3O[C@@H]2O[C@H](CO)[C@@H](O)[C@H](O)[C@H]2O[C@@H]2C[C@@](C)(NCc3ccc(-c4ccc(Cl)cc4)cc3)[C@@H](O)[C@@H](C)O2)Oc2ccc(cc2Cl)[C@H]1O measured_parameter="MIC E. faecalis CL 4877" measured_result=25

# context switch: different molecule, same MIC E. faecalis CL 4877
Incoming: Give the measured MIC E. faecalis CL 4877 for CC1OC(OC2C(Oc3c4cc5cc3Oc3ccc(cc3Cl)C(O)C3NC(=O)C(NC(=O)C5NC(=O)C(CC(N)=O)NC(=O)C(NC(=O)C(N)Cc5ccc(O)c([N+](=O)[O-])c5)C(O)c5ccc(c(Cl)c5)O4)c4ccc(O)c(c4)-c4c(O)cc(O)cc4C(C(=O)O)NC3=O)OC(CO)C(O)C2O)CC(C)(NCc2ccc(-c3ccc(Cl)cc3)cc2)C1O (stereo not drawn)
Outgoing: 25
